Overview of reported IN-GCN2 interaction (%) across a group of molecules:
target: IN-GCN2 interaction (6xHis-IN / GST-GCN2) (UniProt P04585+Q9P2K8); assay: biochemical; assay type: binding, HIV-1 IN; human GCN2; settings: screen, single dose 100 µM, single replicate; residual AlphaLISA signal normalized to DMSO control
Sequence (Q9P2K8 192-1024, other chains not shown): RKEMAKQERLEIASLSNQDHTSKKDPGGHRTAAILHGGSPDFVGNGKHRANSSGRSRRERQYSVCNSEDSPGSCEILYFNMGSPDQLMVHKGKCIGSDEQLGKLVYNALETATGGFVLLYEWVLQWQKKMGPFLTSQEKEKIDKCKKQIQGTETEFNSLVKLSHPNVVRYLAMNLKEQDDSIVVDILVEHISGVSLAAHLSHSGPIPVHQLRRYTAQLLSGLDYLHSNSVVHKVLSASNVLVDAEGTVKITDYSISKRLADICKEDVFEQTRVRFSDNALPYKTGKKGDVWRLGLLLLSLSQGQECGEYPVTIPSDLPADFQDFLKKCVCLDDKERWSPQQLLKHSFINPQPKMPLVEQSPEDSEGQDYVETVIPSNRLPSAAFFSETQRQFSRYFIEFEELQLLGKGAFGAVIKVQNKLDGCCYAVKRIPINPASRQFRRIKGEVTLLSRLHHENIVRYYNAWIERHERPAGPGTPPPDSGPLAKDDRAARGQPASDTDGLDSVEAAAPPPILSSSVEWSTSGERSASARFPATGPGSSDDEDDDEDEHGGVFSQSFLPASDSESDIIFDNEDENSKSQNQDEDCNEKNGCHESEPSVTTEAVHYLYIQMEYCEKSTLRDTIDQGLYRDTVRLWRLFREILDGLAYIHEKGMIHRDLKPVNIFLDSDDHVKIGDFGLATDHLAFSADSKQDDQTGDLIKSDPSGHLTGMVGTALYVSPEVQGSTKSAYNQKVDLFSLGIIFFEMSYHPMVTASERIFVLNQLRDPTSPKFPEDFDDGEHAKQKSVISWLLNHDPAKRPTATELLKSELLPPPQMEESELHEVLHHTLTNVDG
// units = %; emit number, no label

Below, each entry is followed by its recorded IN-GCN2 interaction (%) result.
molecule	test.result
CC(=O)O[C@H]1C(=O)[C@@]2(C)[C@H]([C@H](OC(=O)c3ccccc3)[C@]3(O)C[C@H](O)C(C)=C1C3(C)C)[C@]1(OC(C)=O)CO[C@@H]1C[C@@H]2O	109.90
C=C[C@]1(C)C=C2CC[C@@H]3[C@](C)(CCC[C@@]3(C)C(=O)O)[C@H]2CC1	127.66

Kindly note the recorded IN-GCN2 interaction (%) for COc1cc2c(cc1OC)C(c1cc(OC)c(OC)c(OC)c1)C1(O)C(=O)OCC1(O)C2 (centres unmarked) , which is 86.33

Reported IN-GCN2 interaction (%) for C=C1C(=O)OC2CCN3CC=C(COC(=O)C(C)(O)C4(CO4)C1C)C23 (centres unmarked) was 110.22

get_value(item= C=C1C(=O)O[C@@H]2C[C@@H](C)[C@@H]3C=CC(=O)[C@@]3(C)[C@@H](O)[C@H]12 , readout=IN-GCN2 interaction (%)) returns 117.15

Given item CN1CCc2cc3c(c4c2[C@H]1Cc1ccccc1-4)OCO3 , the value recorded as its IN-GCN2 interaction (%) is 64.36

Please fill in: IN-GCN2 interaction (%) reported for O=C(O)CC(CC(=O)O)C(=O)O = 84.06

The recorded IN-GCN2 interaction (%) for NCCOC[C@H](N)C(=O)O is 90.45

----------
# IN-GCN2 interaction (%) per entry
molecular target: IN-GCN2 interaction (6xHis-IN / GST-GCN2) (UniProt P04585+Q9P2K8); test: biochemical; type: binding, HIV-1 IN; human GCN2; details: screen, single dose 100 µM, single replicate; residual AlphaLISA signal normalized to DMSO control
// return numeric value only (unit: %, not printed)

compound	IN-GCN2 interaction (%)
COc1cc2c(c3c1c(=O)c1ccccc1n3C)C=CC(C)(C)O2	89.07
COc1cc2c(cc1OC)C(OC)N(C)c1c-2ccc2cc3c(cc12)OCO3 (stereo not drawn)	90.77

The compound CC(C)[C@H]1CC[C@@](C)(C(=O)O)C1 , tested on IN-GCN2 interaction (6xHis-IN / GST-GCN2) (UniProt P04585+Q9P2K8), showed IN-GCN2 interaction (%) of 89.12

----------
target: IN-GCN2 interaction (6xHis-IN / GST-GCN2) (UniProt P04585+Q9P2K8); assay: biochemical; type: binding, HIV-1 IN; human GCN2; conditions: screen, single dose 100 µM, single replicate; residual AlphaLISA signal normalized to DMSO control
Label Y when IN-GCN2 interaction (%) < 90%; otherwise N.

Example entries and their recorded answers appear below.
compound	measurement.target	label.class
CN(C)[C@@H]1C(O)=C(C(N)=O)C(=O)[C@@]2(O)C(O)=C3C(=O)c4c(O)ccc(Cl)c4[C@@](C)(O)[C@H]3C[C@@H]12	IN-GCN2 interaction (6xHis-IN / GST-GCN2) (UniProt P04585+Q9P2K8)	N
COC1C(C)OC(OC2CC(C)(O)Cc3cc4c(c(O)c32)C(=O)c2c(O)cc3c(c2C4=O)OC2OC3(C)C(O)C(N(C)C)C2O)C(OC)C1(C)OC (stereo not shown)	IN-GCN2 interaction (6xHis-IN / GST-GCN2) (UniProt P04585+Q9P2K8)	N
C=C(NC(=O)C(=C)NC(=O)c1csc(C2=NC3c4csc(n4)C4NC(=O)c5csc(n5)C(C(C)(O)C(C)O)NC(=O)C5CSC(=N5)/C(=C\C)NC(=O)C(C(C)O)NC(=O)c5csc(n5)C3(CC2)NC(=O)C(C)NC(=O)C(=C)NC(=O)C(C)NC(=O)C(C(C)CC)NC2C=Cc3c(C(C)O)cc(nc3C2O)C(=O)OC4C)n1)C(N)=O (stereo not shown)	IN-GCN2 interaction (6xHis-IN / GST-GCN2) (UniProt P04585+Q9P2K8)	Y
CC(=O)O[C@H]1C[C@H](O[C@H]2[C@@H](O)C[C@H](O[C@H]3[C@@H](O)C[C@H](O[C@H]4CC[C@@]5(C)[C@H](CC[C@@H]6[C@@H]5CC[C@]5(C)[C@@H](C7=CC(=O)OC7)[C@@H](O)C[C@]65O)C4)O[C@@H]3C)O[C@@H]2C)O[C@H](C)[C@H]1O[C@@H]1O[C@H](CO)[C@@H](O)[C@H](O)[C@H]1O	IN-GCN2 interaction (6xHis-IN / GST-GCN2) (UniProt P04585+Q9P2K8)	Y
C[C@@H]1C[C@@H]2CCCC(O)=C2C(=O)O1	IN-GCN2 interaction (6xHis-IN / GST-GCN2) (UniProt P04585+Q9P2K8)	N

Record CN1[C@@H]2CC[C@H]1CC(O)C2 (stereo partly shown) : is its IN-GCN2 interaction (%) strictly below 90%?
N

In the record for CO[C@@]12[C@H](COC(N)=O)C3=C(C(=O)C(C)=C(N)C3=O)N1C[C@H]1[C@@H]2N1C (stereo partly shown) , is IN-GCN2 interaction (%) less than 90%?
Y

IN-GCN2 interaction (%) strictly < 90% for this compound? C[C@H]1CCC/C=C/[C@@H]2C[C@H](O)C[C@H]2[C@H](O)/C=C/C(=O)O1
N

Lab note: confirm whether the reported IN-GCN2 interaction (%) for this compound is below 90%, equality not counting. compound: COc1cc2c3c(c1O)-c1cc(O)ccc1C[C@H]3N(C)CC2
Y

Lab note: IN-GCN2 interaction (%) threshold 90%. Does this compound come in strictly under it? O=C1CC=C2C3CC4N(CCC45c4ccccc4N1C25)C/C3=C\CO (stereo not shown)
N

Given the entry CCCCC[C@@H](O)[C@H]1C(=O)O[C@H](C)[C@@H](O)/C=C/C=C/C=C/C=C/C=C(\C)[C@@H](O)[C@H](O)[C@H](O)C[C@H](O)C[C@H](O)C[C@H](O)C[C@H](O)C[C@@H]1O , would its reported IN-GCN2 interaction (%) be below 90%?
Y
